B1: PKD2L1 (parent)
chain: TLARCAKDILGFAVMFFIVFFAYA

variants of: B1; test: protein stability index of a GFP-peptide fusion (GPS, HEK-293T) (PSI 1-6); higher = more stable; conditions: c terminus: a fixed tail appended;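 further: lentivirally expressed fusions sorted by FACS into six bins by GFP to DsRed ratio, PSI derived from sequencing read proportions per bin multiplied by bin number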
Label label 1 for high-side protein stability index (at or above 3) and label 0 for low-side protein stability index (below it).

F20Y; label 0
A22I; label 0
K7M; label 0
I18G; label 0
A3I; label 1
C5V; label 0
M15A; label 0
D8A; label 0
F12A; label 0
V19H; label 1

Dear colleague, could you confirm whether C5E has protein stability index at or above 3?
label 0

Hi team, for D8L , is the recorded protein stability index at or above 3?
label 0
